Values were extracted from patent US20100249071A1.

- studyTarget: S1P1 (Homo sapiens)
- Construct: host or cells: U2OS
- Sequence (P32121 whole entry): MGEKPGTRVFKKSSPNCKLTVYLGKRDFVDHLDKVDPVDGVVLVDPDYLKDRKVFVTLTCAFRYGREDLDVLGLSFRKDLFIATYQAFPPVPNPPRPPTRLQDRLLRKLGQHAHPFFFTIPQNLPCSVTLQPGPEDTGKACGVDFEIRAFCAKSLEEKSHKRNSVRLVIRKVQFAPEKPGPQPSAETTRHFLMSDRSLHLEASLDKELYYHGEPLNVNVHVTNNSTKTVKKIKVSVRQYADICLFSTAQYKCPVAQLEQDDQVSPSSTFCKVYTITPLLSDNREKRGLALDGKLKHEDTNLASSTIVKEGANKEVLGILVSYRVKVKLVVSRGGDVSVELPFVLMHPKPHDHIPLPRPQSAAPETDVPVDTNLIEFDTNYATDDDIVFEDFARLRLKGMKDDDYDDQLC
- Sequence (P21453 whole entry): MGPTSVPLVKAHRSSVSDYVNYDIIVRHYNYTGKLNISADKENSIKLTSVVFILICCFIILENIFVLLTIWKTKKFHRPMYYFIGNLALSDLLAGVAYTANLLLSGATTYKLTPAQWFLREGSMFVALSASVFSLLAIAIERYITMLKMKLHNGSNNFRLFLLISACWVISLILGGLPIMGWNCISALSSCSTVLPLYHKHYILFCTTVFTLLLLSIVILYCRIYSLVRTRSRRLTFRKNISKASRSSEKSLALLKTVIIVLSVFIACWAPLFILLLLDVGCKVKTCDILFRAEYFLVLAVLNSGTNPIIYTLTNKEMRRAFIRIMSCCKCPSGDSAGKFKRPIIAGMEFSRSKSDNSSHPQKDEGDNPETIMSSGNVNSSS
- assayProcedure: Tango β-arrestin recruitment assay in U2OS cells (Assay 2b)
- Format: cell-based
- measurementSetup: read-out: Assay 2b EC50
Quick reference for EC50 among some compounds

Inquiry: Need EC50, item CC(C)Oc1ccc(-c2nnc(-c3cc(F)c(OC[C@H](N)[C@H](C)O)cc3Cl)s2)cc1C#N
Reply text: ≤ 10 nM

Inquiry: Also need N[C@H](CO)COc1cc(Cl)c(-c2nnc(-c3ccc(OC(F)(F)F)c(Cl)c3)s2)cc1F , thanks.
Reply text: 250 to 2800 nM

Inquiry: Record: Cc1cc(NC(C)C)cc(-c2nnc(-c3cc(F)c(OC[C@H](N)[C@H](C)O)cc3Cl)s2)n1
Reply text: 50 to 250 nM

More entries:
Inquiry: Consider the compound shown here: N[C@H](CO)COc1cc(Cl)c(-c2nnc(-c3cc(-c4ccccc4)c(C(F)(F)F)s3)s2)cc1F What is its recorded EC50?
Reply text: 250 to 2800 nM

Inquiry: What about N[C@H](CO)COc1cc(Cl)c(-c2nnc(-c3cc(F)cc(Br)c3)s2)cc1F ?
Reply text: 50 to 250 nM

Inquiry: Note, next up: CC(C)Oc1ccc(-c2nnc(-c3cc(F)c(OC[C@@H](N)COP(=O)(O)O)cc3Cl)s2)cc1Cl
Reply text: ≤ 10 nM

Inquiry: Another compound to check: CC(C)N(C)c1ccc(-c2nnc(-c3cc(F)c(OCC(N)CO)cc3Cl)s2)cn1 (stereo not shown)
Reply text: ≤ 10 nM

Inquiry: Can you handle CC(C)Oc1ncc(-c2nnc(-c3cc(F)c(OCC(N)CO)cc3Cl)s2)cc1Cl (stereo not shown) next?
Reply text: ≤ 10 nM

Inquiry: Next entry: N[C@H](CO)COc1cc(Cl)c(-c2nnc(-c3cc(Cl)cc(Cl)c3)s2)cc1F
Reply text: 250 to 2800 nM

Inquiry: Then this compound: CCOc1ccc(-c2nnc(-c3cc(F)c(OC[C@H](N)CO)cc3Cl)s2)cc1Cl
Reply text: 10 to 50 nM

Inquiry: // next record CC(C)Oc1ccc(-c2nnc(-c3cc(F)c(OC[C@H](N)COP(=O)(O)O)cc3Cl)s2)cc1Cl
Reply text: ≤ 10 nM

Inquiry: Same again, this time with CC(C)Oc1ccc(-c2nnc(-c3cc(F)c(OC[C@H](N)[C@@H](C)OP(=O)(O)O)cc3Cl)s2)cc1C#N
Reply text: ≤ 10 nM

Inquiry: What do we get for CC(C)Oc1ccc(-c2nnc(-c3cc(Cl)c(OC[C@H](N)CO)c(Cl)c3)s2)cc1Cl ?
Reply text: 50 to 250 nM

Inquiry: Try this compound too: Cc1cc(-c2nnc(-c3cc(F)c(OC[C@H](N)[C@H](C)O)cc3Cl)s2)cc(NC(C)C)n1
Reply text: 10 to 50 nM

Inquiry: Same again, this time with CC(C)Nc1ccc(-c2nnc(-c3cc(F)c(OC[C@@H](N)COP(=O)(O)O)cc3Cl)s2)cn1
Reply text: ≤ 10 nM

Inquiry: # repeat for CC(C)Oc1ccc(-c2nnc(-c3cc(F)c(OC[C@H](N)CO)cc3Cl)s2)cc1C(F)(F)F
Reply text: 10 to 50 nM
